Target: T1, His9-hMSR1 (human MSR1 extracellular domain) (Homo sapiens, UniProt P21757)
T1 construct: human MSR1 extracellular domain expressed with a N-terminal nonahistidine tag; His9 (nonahistidine) (N); purchased R&D Systems 2708-MS
T1 sequence (P21757 77-451 limits assumed): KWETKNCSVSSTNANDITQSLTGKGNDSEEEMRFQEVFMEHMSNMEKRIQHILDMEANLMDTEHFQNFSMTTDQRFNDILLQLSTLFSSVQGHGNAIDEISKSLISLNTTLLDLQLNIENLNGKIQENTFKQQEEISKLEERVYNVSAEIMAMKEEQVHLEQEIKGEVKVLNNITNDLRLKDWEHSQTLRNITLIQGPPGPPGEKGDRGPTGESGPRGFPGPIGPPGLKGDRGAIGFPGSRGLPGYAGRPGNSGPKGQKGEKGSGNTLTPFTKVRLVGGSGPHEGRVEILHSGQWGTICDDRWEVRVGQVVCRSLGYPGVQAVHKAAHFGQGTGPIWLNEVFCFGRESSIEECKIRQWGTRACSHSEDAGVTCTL
Assay: Biacore T200 surface plasmon resonance binding kinetics of anti-MSR1 antibody-drug conjugates and parental antibodies
Details: 25° C.; Table 19; * = no dissociation observed, kd manually fixed at 1.00E−05
kd overview
Property: kd

molecule="H1H27731P-N297Q-LP1 (conjugate) VH: QLQLQESGPGLVKPSETLSLTCTVSGGSISRISYYWGWIRQPPGKGLEWIGSIYDSGSTYYNPSLKSRVTISIDTSKNQFSLKLSSVTAADTAVYYCVRYSSSSAFAFDYWGQGTLVTVSS VL: DIQMTQSPSSVSASVGDRVTITCRASQGISSWLAWYQQKPGKAPKLLIYAASSLQSGVPSRFSGSGSGTDFTLTISSLQPEDFATYYCQQANSFPFTFGPGTKVDIKR" result="1.00E−05* s^−1"
molecule="H1H27754P-N297Q-LP1 (conjugate) VH: EVQLVESGGGLVQPGGSLRLSCAASGFTFRTYAMTWVRQAPGKGLDWVSAITGDGGNTYYADSVKGRFTISRDNSKNTLYLQMNSLRAEDTAIYYCAKDQRFSFALYYFDYWGQGTLVTVSS VL: DIQMTQSPSSVSASVGDRVTITCRASQGISSWLAWYQQKPGNAPKLLIYAAFSLQSGVPSRFSGSGSGTDFTLTISSLQPEDFATYYCQQANNFPWTFGQGTKVEIKR" result="1.00E−05* s^−1"
molecule="H1H27754P-N297Q: one of \"Twelve anti-MSR1 antibodies\"; \"made with an N297Q single point mutation in human Fcγ portion\" (antibody, V domains shown) VH: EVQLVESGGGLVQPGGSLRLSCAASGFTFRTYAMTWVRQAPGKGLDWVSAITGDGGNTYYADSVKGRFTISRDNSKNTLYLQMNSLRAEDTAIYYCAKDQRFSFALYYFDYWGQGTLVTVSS VL: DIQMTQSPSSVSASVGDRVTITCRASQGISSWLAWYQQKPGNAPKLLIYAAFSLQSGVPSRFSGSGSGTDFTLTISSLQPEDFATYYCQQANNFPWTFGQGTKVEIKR" result="1.00E−05* s^−1"
